Values from PubChem BioAssay AID1224904

Gaussia minus Italica difference for assorted compounds
# protocol_details: DUX4 transcriptional activity inhibition in cells – 293T cells, Gaussia and Italica luciferase, primary screen (AID 1224904)
# measurement_context: 293T-iDUX4 ZSCAN4-Gaussia luciferase reporter, 24 h; measured here: selective DUX4 reporter inhibition; stronger effect = lower value; concentration not given here
Hit rate of the full screen: of about 37,000 compounds, about 290 (0.78%) were called active. Roughly 10% stayed inconclusive and do not appear here. This is one part of a sample in which actives are shown more often than they occur.

| compound | Gaussia minus Italica difference / % |
| --- | --- |
| Cc1ccccc1-c1ccc(C2[C@@H]3CN(C(=O)C4CCCCC4)C[C@H]2N3)cc1 (some centres undefined) | -6.12 |
| CCN(C[C@@H]1[C@H](c2ccccc2)[C@@H](CO)N1CC1CC1)C(=O)c1ccccn1 | -1.49 |
| CN1C(=O)c2cc(NC(=O)c3cnccn3)ccc2OC[C@@H]2O[C@H](CC(=O)NC3CCC3)CC[C@@H]21 | 3.07 |
| CCCNC(=O)C[C@H]1CC[C@H]2[C@@H](COc3ccc(NC(=O)Nc4c(C)noc4C)cc3C(=O)N2C)O1 | -0.269 |
| O=C(CN1CCOCC1)N1CCCCN2[C@H](CO)[C@H](c3ccc(Br)cc3)[C@H]2C1 | 13.5 |
| O=C(C[C@@H]1CC[C@@H]2[C@H](COC[C@H](O)CN2CC2CCOCC2)O1)NCC1CCCCC1 | -8.33 |
| CN(C)c1ccc2c(c1)[C@H]1C[C@H](CC(=O)O)O[C@H](CO)[C@H]1O2 | -5.64 |
| O=C(C[C@@H]1CC[C@@H]2[C@H](COC[C@H](O)CN2Cc2cccc(F)c2)O1)NCc1ccncc1 | 9.04 |
| C[C@H](NC(=O)C[C@H]1C=C[C@H](NS(=O)(=O)c2cccc(F)c2)[C@@H](CO)O1)c1ccccc1 | 1.67 |
| CCCNC(=O)N1C[C@@H](C)[C@@H](OC)CN(C)C(=O)c2ccc(NC(=O)C3CCC3)cc2OC[C@@H]1C | -0.535 |
| CO[C@@H]1CC[C@@H]2CCOc3c(C#N)cccc3C(=O)N(C)C[C@@H](C)C(=O)N(C)C[C@@H]1O2 | -1.62 |
| O=C(C[C@@H]1CC[C@H]2[C@@H](COC[C@@H](O)CN2C(=O)Nc2ccc(Cl)cc2)O1)NC1Cc2ccccc2C1 | -7.28 |
| CCC(=O)N1[C@H](CO)[C@@H]2c3ccccc3N(S(=O)(=O)c3ccccc3C)C[C@@H]21 | -0.0907 |
| C[C@@H](O)C#Cc1ccc([C@@H]2[C@H]3CN(C(=O)c4ccc5c(c4)OCO5)CCCCN3[C@H]2CO)cc1 | -8.36 |
| COc1cccc(CNC(=O)[C@@H]2[C@@H](CO)[C@@H]3Cn4c(ccc(-c5ccncc5)c4=O)[C@H]2N3C(C)=O)c1 | -0.373 |
| CCCNC(=O)N1C[C@@H](O)COC[C@@H]2O[C@H](CC(=O)N3CCN(C)CC3)CC[C@H]21 | 1.17 |
| CCC(=O)N1CC2(C1)[C@@H](c1ccc(-c3ccc(C#N)cc3)cc1)[C@H](CO)N2C(C)=O | 11.4 |
| CCCC#Cc1ccc([C@@H]2[C@@H](C#N)N(C(=O)C3CCC3)[C@H]2CO)cc1 | -1.01 |
| O=C1N[C@H](c2ccccc2)COCc2cn(nn2)CC[C@@H]1Cc1ccc(Cl)cc1 | 7.94 |
| CCS(=O)(=O)N1CCC2(CC1)CN[C@H](CO)c1c2c2ccc(OC)cc2n1C | 3.59 |
| CN(C)C(=O)[C@@H]1[C@@H](CO)[C@@H]2Cn3c(cccc3=O)[C@H]1N2CC1CCCCC1 | 3 |
| O=C(Nc1ccccc1F)N1C[C@H]2[C@@H](c3ccccc31)[C@H](CO)N2C(=O)c1ccccn1 | -0.784 |
| CC(C)CN(C[C@@H]1N[C@@H](CO)[C@H]1c1ccccc1)C(=O)CN(C)C | -0.462 |
| CN1c2ccc(-c3ccccc3F)cc2[C@@H]2[C@@H](CCN2C(=O)CN2CCOCC2)[C@H]1CO | -8.96 |
| O=C(CN1CCOCC1)N1C[C@@H]2N[C@H](C1)C2c1ccc(-c2ccncc2)cc1 (some centres undefined) | -4.83 |
| CN1C(=O)c2cc(NS(=O)(=O)c3ccc(Cl)cc3)ccc2OC[C@H]2O[C@@H](CC(=O)O)CC[C@H]21 | 2.63 |
| O=C(C1CCC1)N1C[C@@H]2N[C@H](C1)C2c1ccc(-c2cncnc2)cc1 (some centres undefined) | -25.4 |
| C[C@H](NC(=O)C[C@@H]1C=C[C@H](NC(=O)CN2CCOCC2)[C@H](CO)O1)c1ccccc1 | 3.76 |
| CC(C)NC(=O)N1C[C@@H]2[C@H](c3ccccc31)[C@H](CO)N2C(=O)C1CCCC1 | -0.893 |
| CCN(C[C@@H]1[C@@H](c2ccccc2)[C@H](CO)N1C(C)=O)C(=O)NC(C)C | -3.89 |
| O=C([C@H]1[C@H](CO)[C@H]2Cn3c(cccc3=O)[C@@H]1N2Cc1cocn1)N1CCCCC1 | -0.343 |
| COc1ccc(CNC(=O)C[C@H]2C[C@@H]3c4cc(NC(=O)NC5CCCC5)ccc4O[C@@H]3[C@H](CO)O2)cc1 | 1.96 |
| CCC(=O)N1CCC2(CC1)CN(Cc1cccc(Cl)c1)[C@@H](CO)c1c2c2ccc(OC)cc2n1C | -2.02 |
| COc1ccc(NC(=O)Nc2ccc3c(c2)[C@@H]2C[C@@H](CC(=O)NCc4ccncc4)O[C@@H](CO)[C@@H]2O3)cc1 | -4.25 |
